Target: histone deacetylase (HeLa nuclear extracts)
Assay: In vitro assay for inhibition of histone deacetylase
Assay type: biochemical
Settings: [3H]acetylated histone H4 peptide substrate
Metric: Enzyme activity pIC50

Nc1ccccc1NC(=O)c1cnc(N2CCN(S(=O)(=O)c3ccc4ccccc4c3)CC2)nc1
<5
O=C(Nc1ccc(N2CCN(S(=O)(=O)c3ccc4ccccc4c3)CC2)cc1)c1ccc(=O)[nH]c1
<5
O=C(NO)c1cnc(N2CCN(S(=O)(=O)c3ccc4ccccc4c3)CC2)nc1N1CCN(S(=O)(=O)c2ccc3ccccc3c2)CC1
<5

----------
Test: Kinetic solubility in aqueous media (nephelometry)
Assay type: physicochemical
Conditions: phosphate citrate buffer, pH 7.4, aqueous buffer, kinetic from dmso stock, phosphate citrate buffer pH 7.4, turbidity of three dilution steps; read-out: Solubility Score
Metric: solubility

CN1CCN(CCc2cccc(-c3ccc(S(=O)(=O)N4CCN(c5ncc(C(=O)NO)cn5)CC4)cc3)c2)CC1
> 454 µM
O=C(NO)c1cnc(N2CCN(S(=O)(=O)c3ccc(-c4cccc(CCO)c4)cc3)CC2)nc1
> 454 µM
O=C(NO)c1cnc(N2CCN(S(=O)(=O)c3ccc(/C=C/c4ccccc4)cc3)CC2)nc1
75.8 to 454 µM
CN(C)S(=O)(=O)N1CCN(Cc2sccc2-c2ccc(S(=O)(=O)N3CCN(c4ncc(C(=O)NO)cn4)CC3)cc2)CC1
< 75.8 µM
O=C(NO)c1ccc(N2CCN(S(=O)(=O)Cc3ccccc3)CC2)cc1
< 75.8 µM
CC(C)N(C)Cc1cccc(-c2ccc(S(=O)(=O)N3CCN(c4ncc(C(=O)NO)cn4)CC3)cc2)c1
> 454 µM
O=C(NO)Nc1ccc(N2CCN(S(=O)(=O)c3ccc4ccccc4c3)CC2)cc1
75.8 to 454 µM
O=C(NO)c1cnc(N2CCN(S(=O)(=O)c3ccc(-c4ccc(OC(F)(F)F)cc4)cc3)CC2)nc1
75.8 to 454 µM
COC1CCN(Cc2sccc2-c2ccc(S(=O)(=O)N3CCN(c4ncc(C(=O)NO)cn4)CC3)cc2)CC1
75.8 to 454 µM
